Sourced from PubChem BioAssay AID1159580

test.name: chemical genetic growth profiling, strain panel (AID 1159580);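 further: tested at 20 µM; growth read once vehicle control cultures reached saturation at 30 °C; 1 = growth at the plate median or of vehicle wells; lower values mean less growth of the strain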
experimental.setup: S. cerevisiae deletion strains, growth OD, locus YDL074C, strain BRE1, hits give low values
About 2,000 (36%) of roughly 5,500 compounds were called active. About 18% were inconclusive and are not listed. The list shows a part of the results. Where a SMILES comes first, the peptide text is derived from it.
compounds and their reported normalized growth

# compound, normalized growth
rows = [
    ("C[C@]12CCC3C(CC[C@H]4C[C@H](O)CC[C@]34C)C1CC[C@@H]2O (stereo not given in full)", 0.929),
    ("CC(=O)N[C@@H](CC(=O)O)C(=O)N[C@@H](CCC(=O)O)C(=O)O (Ac-Asp-Glu-OH)", 1.03),
    ("NCCCCNCCCN", 0.98),
    ("CC1OC(O[C@H]2/C=C/C=C/C=C/C=C/C=C/C=C/C=C/[C@H](C)[C@@H](O)[C@@H](C)[C@H](C)OC(=O)CC(O)CC(O)CCC(O)C(O)CC(O)C[C@]3(O)C[C@H](O)C(C(=O)O)C(C2)O3)C(O)[C@H](N)C1O (stereo not given in full)", 1.03),
    ("O=NN(CCCl)C(=O)NCCCl", 0.93),
]
